B1: HSP90AB1 (parent)
chain: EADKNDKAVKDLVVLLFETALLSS

Variants of: B1
assay_procedure: protein stability index of a GFP-peptide fusion (GPS, HEK-293T) (PSI 1-6); higher = more stable;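 also: lentivirally expressed fusions sorted by FACS into six bins by GFP to DsRed ratio, PSI derived from sequencing read proportions per bin multiplied by bin number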
experimental_conditions: c terminus: a fixed tail appended

{"variant_code": "F17K", "protein stability index": 3.76}
{"variant_code": "S23F", "protein stability index": 1.68}
{"variant_code": "L21F", "protein stability index": 2.13}
{"variant_code": "F17N", "protein stability index": 3.94}
{"variant_code": "V14Q", "protein stability index": 2.33}
{"variant_code": "V9R", "protein stability index": 1.95}
{"variant_code": "D6Q", "protein stability index": 2.2}
{"variant_code": "L21H", "protein stability index": 2.27}
{"variant_code": "S24W", "protein stability index": 1.75}
{"variant_code": "V9I", "protein stability index": 1.84}
{"variant_code": "L16P", "protein stability index": 4.67}
{"variant_code": "A2S", "protein stability index": 1.77}
{"variant_code": "L16W", "protein stability index": 2.2}
{"variant_code": "L16H", "protein stability index": 3.34}
{"variant_code": "V9F", "protein stability index": 2.17}
{"variant_code": "K7Q", "protein stability index": 1.67}
{"variant_code": "D11Y", "protein stability index": 2.79}
{"variant_code": "T19E", "protein stability index": 2.71}
{"variant_code": "K10Y", "protein stability index": 2.7}
{"variant_code": "V9L", "protein stability index": 2.42}
{"variant_code": "L12G", "protein stability index": 3.5}
{"variant_code": "T19A", "protein stability index": 1.42}

Measured values drawn from the supplement of paper PMC10567573 for this set.
